Recorded viability for the following compounds
Assay: P. berghei load reduction in hepatocytes – cell-based, HepG2, luciferase luminescence, HepG2 viability, primary screen (AID 624349);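 also: 100% = mean of DMSO negative control wells on the same plate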
Settings: P. berghei liver stage in HepG2, luciferase luminescence, concentration not given here; measured here: HepG2 viability without parasites
Answers without a unit are incomplete; give the number and then its unit.

Some compounds with known viability results, for comparison:
CNCCCCOc1ccccc1Cc1ccccc1 : 54.6%
CC[N+](C)(C)Cc1ccccc1Br : 101%
CNC[C@H](O)[C@@H](O)[C@H](O)[C@H](O)CO : 224%
Oc1ccc(Cl)cc1Cc1cc(Cl)ccc1O : 65.1%
O=C(O)c1cc(O)c(O)c(O)c1 : 100%

What the record says about CC(Cc1ccccc1)(NC(=O)CN)c1ccccc1 (configuration not stated) : viability is 74.8%

The compound identified as O=C(O)CN1C(=O)c2cccc3cccc(c23)C1=O registered its viability at 96.3%

viability reading for CCCCN(CCCC)CCC(O)c1cc2c(Cl)cc(Cl)cc2c2cc(C(F)(F)F)ccc12 (configuration not stated) : 69.5%

Notebook: NCC1CCC(C(=O)Oc2ccc(CCC(=O)O)cc2)CC1 (configuration not stated) , viability read as 78.2%

Query O=C(O)c1cc(=O)c2ccccc2o1 yields viability of 95.8%

Kindly note the recorded viability for Clc1ccc(C(c2ccccc2Cl)C(Cl)Cl)cc1 (configuration not stated) , which is 80.1%

Record summary for COc1cc([C@H]2Oc3cc([C@H]4Oc5cc(O)cc(O)c5C(=O)[C@@H]4O)ccc3O[C@@H]2CO)ccc1O : reported viability = 93%

----------
Assay: reduced SW480 viability measured with CellTiter-Glo, NPC library, primary (AID 1117343)
Details: CellTiter-Glo luminescence; at 20 µM (top of the series)
Active and inactive are the calls of the source.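 The calls were made as follows: active = compounds that lower viability of the colon cancer cells in the luminescence readout, with no numeric limit stated; inactive = the rest.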
Write down the outcome that applies. Available outcomes: t = active, f = inactive

Worked examples follow.
C/C=C/c1ccc(OC)cc1 : f
CCCCCN(C)CCC(O)(P(=O)(O)O)P(=O)(O)O : f
CNC[C@H](O)c1cccc(O)c1 : f

[Q] I'd appreciate the recorded outcome for Nc1ccc(C(=O)Oc2ccccc2)c(O)c1 from this test.
[A] f

[Q] Which outcome was assigned to C[C@@H]1C[C@H]2[C@@H]3C[C@H](F)C4=CC(=O)C(Cl)=C[C@]4(C)[C@@]3(F)[C@@H](O)C[C@]2(C)[C@@]1(O)C(=O)CO in this test?
[A] f

[Q] Please indicate how the test categorized COc1ccccc1OCC(O)CO (stereo unspecified) .
[A] f

[Q] Called result for CC(N)C(=O)OC(C)(C)Cc1ccc(Cl)cc1 (stereo unspecified)
[A] f

----------
Test: compounds altering HSF1 focus formation in cells – imaging, Selleck Cancer Library (AID 1347162)
Conditions: human cells, HSF1 nuclear foci imaging, at 10 µM; measured here: cell number
endpoint.name: cell count
Respond using a number only.

Worked examples, 3 compounds total:
Cc1ccc(NC(=O)c2ccc(CN3CCN(C)CC3)cc2)cc1Nc1nccc(-c2cccnc2)n1 : 6720
CCc1c2c(nc3ccc(OC(=O)N4CCC(N5CCCCC5)CC4)cc13)-c1cc3c(c(=O)n1C2)COC(=O)[C@]3(O)CC : 7510
O=NN(CCCl)C(=O)NC1CCCCC1 : 6620

Consider the additional compound presented here.
Reported cell count of CC(=O)[C@]1(O)Cc2c(O)c3c(c(O)c2[C@@H](O[C@H]2C[C@H](N)[C@H](O)[C@H](C)O2)C1)C(=O)c1ccccc1C3=O : 5180
